target: T1, human melanin concentrating hormone type 2 receptor (MCH-2R) (human, UniProt Q969V1 1-340); assay: SPA competition with [125I]-human MCH (Phe13, Tyr19) on receptor membranes
T1 construct: also called MCH-R2
T1 sequence (Q969V1 whole entry, form in doubt): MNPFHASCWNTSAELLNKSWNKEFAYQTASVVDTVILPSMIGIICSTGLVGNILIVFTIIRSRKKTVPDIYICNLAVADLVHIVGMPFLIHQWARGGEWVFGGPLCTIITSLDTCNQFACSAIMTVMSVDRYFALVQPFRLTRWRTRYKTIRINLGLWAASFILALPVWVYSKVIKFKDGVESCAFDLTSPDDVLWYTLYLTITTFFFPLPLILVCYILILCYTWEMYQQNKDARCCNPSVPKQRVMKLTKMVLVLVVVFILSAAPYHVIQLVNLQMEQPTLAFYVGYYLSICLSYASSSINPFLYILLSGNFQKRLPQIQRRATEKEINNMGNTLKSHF
pIC50: −log10 of the molar value. Bridges are numbered along the chain shown (N, C = ends). Where no end group is shown, it is not given here.
Think of 8 as a floor: if pIC50 stands on it or above, it is t; beneath it, f.

Record excerpt, results attached:
DFDMARCMLGRVYRPCWQV (disulfide 7-16, also called Ala^5) [SEQ. ID. NO. 45] ... t
DFDALRCMLGRVYRPCWQV (disulfide 7-16, also called Ala^4) [SEQ. ID. NO. 44] ... t
DFDMLRCMLGRVARPCWQV (disulfide 7-16, also called Ala^13) [SEQ. ID. NO. 51] ... f
DFDMLRCALGRVYRPCWQV (disulfide 7-16) [SEQ. ID. NO. 47] ... f

--- query ---
Inquiry: Is pIC50 at least 8? Consider DADMLRCMLGRVYRPCWQV (disulfide 7-16, also called Ala^2) [SEQ. ID. NO. 42]
Reply text: t

Recorded values, source patent US20040147432A1.
